Biological target: Corticotropin-releasing factor receptor 2/Corticotropin-releasing factor-binding protein (Homo sapiens, UniProt P24387+Q13324)
Sequence (Q13324 whole entry): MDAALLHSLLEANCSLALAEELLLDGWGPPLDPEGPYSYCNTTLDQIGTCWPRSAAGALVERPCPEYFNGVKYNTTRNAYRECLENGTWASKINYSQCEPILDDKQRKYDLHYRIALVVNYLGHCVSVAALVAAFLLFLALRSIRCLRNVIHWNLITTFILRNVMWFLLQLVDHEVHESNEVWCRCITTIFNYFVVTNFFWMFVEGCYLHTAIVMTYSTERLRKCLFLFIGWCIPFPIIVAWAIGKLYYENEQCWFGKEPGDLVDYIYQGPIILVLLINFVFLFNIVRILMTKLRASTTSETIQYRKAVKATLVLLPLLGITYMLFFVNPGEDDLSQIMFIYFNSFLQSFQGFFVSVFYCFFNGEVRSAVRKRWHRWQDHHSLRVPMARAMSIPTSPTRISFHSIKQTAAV
Sequence (P24387 whole entry): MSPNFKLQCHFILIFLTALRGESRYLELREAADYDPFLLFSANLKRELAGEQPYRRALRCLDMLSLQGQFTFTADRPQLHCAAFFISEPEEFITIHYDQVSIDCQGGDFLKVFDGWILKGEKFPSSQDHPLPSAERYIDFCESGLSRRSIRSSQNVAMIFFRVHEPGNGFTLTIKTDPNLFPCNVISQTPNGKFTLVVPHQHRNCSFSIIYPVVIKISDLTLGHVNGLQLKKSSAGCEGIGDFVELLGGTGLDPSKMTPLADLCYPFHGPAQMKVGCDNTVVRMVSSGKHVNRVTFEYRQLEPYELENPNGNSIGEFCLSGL
Assay: activators of CRF receptor 2 with binding protein – uHTS hits, confirmation (AID 602473)
Assay type: functional
Conditions: read-out: EC50_Mean
Active and inactive are the calls of the source. No stated cut-off is given here; in the data, actives have a measured EC50 and inactives only a lower limit.
Outcomes: y = active, n = inactive

• Cc1sc2ncnc(OCC(=O)NC(C)C)c2c1C = n
• Cc1cccc(N2CCN(C(=O)CCc3nc(O)c4ccccc4n3)CC2)c1C = n
• Cc1ccc(CN2CCN(C3CCOCC3)CC2CCO)cc1 (stereo not drawn) = n
• CN(C)c1ccc(/C=C/C(=O)c2ccc(O)cc2)cc1 = y
• Cc1cc(NC(=O)COC(=O)C(Cc2ccccc2)NC(=O)c2ccco2)no1 (stereo not drawn) = y
• CN1CCC2(CC1)Nc1nc(SCc3ccc(Cl)cc3)nn1C1=C2CN(C)CC1 = n
• Cc1ccc([C@H]2C(C(=O)O)=CC[C@@H](c3ccc(Cl)cc3)N2S(=O)(=O)c2ccc(C)cc2)cc1 = y
• Cc1cccc(C(=O)NC(=S)N2CCN(C(=S)NC(=O)c3cccc(C)c3)CC2)c1 = n

All figures here come from ChEMBL document CHEMBL1201862.
